Biological target: RHA dsRBD2 H207A (Homo sapiens, UniProt Q08211 165-264, H207A)
Sequence (Q08211 165-264 H207A): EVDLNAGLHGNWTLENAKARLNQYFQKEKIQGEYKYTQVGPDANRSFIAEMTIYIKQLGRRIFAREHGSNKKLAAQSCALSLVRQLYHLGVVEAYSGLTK
Experiment: ITC
Assay metric: pKd
Keep it numeric: pKd is minus log10 of the concentration in mol/L.

Report pKd for siRNA21 duplex (dsRNA, 5' phosphate) RNA 1: AGACAGCAUUAUGCUGUCUUU RNA 2: AGACAGCAUUAUGCUGUCUUU please.
3.54
